Provenance of the data: PubChem BioAssay (NCATS)

assay.overview: NFAT Signaling Pathway (AID 444);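 also: carbachol stimulus at about its EC50 of 1 µM final; % is scaled to controls: 0 for no effect and ±100 for the full control effect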
assay.conditions: Jurkat NFAT-bla M1, carbachol, beta-lactamase ratio, 5 h; at 7.69 µM (top of the series) unless noted
Inconclusive results are not listed.
measurement.type: activity change, negative = inhibition (%)
One number for each entry, in %.

For each entry beneath this line, provide reported activity change, negative = inhibition.
1. COC(=O)N1CCC[C@@]2(CCN(C(=O)Nc3cccc(F)c3)C2)C1
2. COCCn1c(=O)c(C)nc2cnc(N3CCN(C)CC3)nc21

Return:
1: -2.35; 2: 4.52

Quick one: give me activity change, negative = inhibition for each item below, same order please.
1. COCCn1c(=O)c(-c2ccccc2)nc2cnc(OCc3ccccc3)nc21
2. CS(=O)(=O)N1CCC2(CC1)CN(c1ccncc1)C2
3. COc1ccc(C(=O)N2CCC[C@@]3(CCN(Cc4ccc(C#N)cc4)C3)C2)cc1
4. O=C(Nc1cccc(F)c1)N1CCCC2(CCN(S(=O)(=O)c3ccccc3)CC2)C1

Return:
[0.0505, -17.7, -4.67, -29.9]
